# test_system: Glutaminase kidney isoform, mitochondrial (Mus musculus)
# Sequence (D3Z7P3 whole entry, canonical isoform): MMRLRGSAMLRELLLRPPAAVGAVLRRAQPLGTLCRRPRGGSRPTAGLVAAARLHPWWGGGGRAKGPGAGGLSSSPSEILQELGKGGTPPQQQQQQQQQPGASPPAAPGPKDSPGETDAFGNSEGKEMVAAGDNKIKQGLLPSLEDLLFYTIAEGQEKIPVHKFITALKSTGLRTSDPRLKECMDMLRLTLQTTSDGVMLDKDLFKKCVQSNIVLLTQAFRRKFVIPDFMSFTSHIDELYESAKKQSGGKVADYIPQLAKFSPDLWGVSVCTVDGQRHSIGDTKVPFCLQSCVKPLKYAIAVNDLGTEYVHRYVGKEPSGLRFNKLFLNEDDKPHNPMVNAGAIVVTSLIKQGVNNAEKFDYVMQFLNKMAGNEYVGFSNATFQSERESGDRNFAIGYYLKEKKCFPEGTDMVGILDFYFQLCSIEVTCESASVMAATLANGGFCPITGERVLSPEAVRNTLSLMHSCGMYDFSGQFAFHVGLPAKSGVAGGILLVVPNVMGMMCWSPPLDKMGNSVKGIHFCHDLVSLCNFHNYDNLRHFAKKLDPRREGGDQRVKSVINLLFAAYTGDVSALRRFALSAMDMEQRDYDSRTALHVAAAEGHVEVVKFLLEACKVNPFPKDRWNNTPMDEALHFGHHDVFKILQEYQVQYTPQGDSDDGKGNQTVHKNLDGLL
# protocol_text: Inhibition of GLS1 in mouse brain assessed as inhibition of glutamate production using glutamine as substrate incubated for 1 hr by coupled assay
# Assay type: tissue-based
outcome_measure: IC50 (nM)
Numbers only here, please. The scale is nM.

Input line: Which IC50 value belongs to `O=C(Cc1cccc(OC(F)(F)F)c1)Nc1ccc(CCCCc2nnc(NC(=O)Cc3ccccn3)s2)nn1` ?
Output line: 20

* * *

# Test system: HCT-116
# protocol_text: Antiproliferative activity against human HCT-116 cells overexpressing GLS1 assessed as inhibition of cell proliferation measured after 72 hrs by MTT assay
# Assay type: functional, cell-based
# condition: HCT-116, 72 h
Answer each item with its documented IC50.
Numbers only here, please. The scale is µM.

Input line: Which IC50 value belongs to `COc1ccc(Cn2cc(CCC(=O)Nc3ccc(N4CCC(Nc5nnc(NC(=O)Cc6ccccn6)s5)CC4)nn3)nn2)cc1` ?
Output line: 1.45

Input line: And the next one, `CO[C@H](C(=O)Nc1nnc(NC2CCN(c3nnc(NC(=O)CCc4cn(Cc5ccc(C(F)(F)F)cc5)nn4)s3)CC2)s1)c1ccccc1` ?
Output line: 0.3

Input line: And the next one, `Cc1cccc(C)c1Cn1cc(CCC(=O)Nc2nnc(N3CCC(Nc4nnc(NC(=O)Cc5ccccc5)s4)CC3)s2)nn1` ?
Output line: 3.96

Input line: And the next one, `O=C(CCc1cn(Cc2ccc(C(F)(F)F)cc2)nn1)Nc1ccc(N2CC[C@@H](Nc3nnc(NC(=O)Cc4ccccn4)s3)C2)nn1` ?
Output line: 0.51

Input line: And the next one, `O=C(Cc1ccccc1)Nc1nnc(N[C@@H]2CCN(c3nnc(NC(=O)CCc4cn(Cc5ccc(C(F)(F)F)cc5)nn4)s3)C2)s1` ?
Output line: 0.29

Input line: And the next one, `COc1ccc(Cn2cc(CCC(=O)Nc3nnc(N4CCC(Nc5nnc(NC(=O)Cc6ccccc6)s5)CC4)s3)nn2)cc1` ?
Output line: 0.41

Input line: And the next one, `O=C(Cc1ccccc1)Nc1nnc(N[C@H]2CCN(c3nnc(NC(=O)CCc4cn(-c5ccc(C(F)(F)F)cc5)nn4)s3)C2)s1` ?
Output line: 15.5

Input line: And the next one, `O=C(Cc1ccccc1)Nc1nnc(N[C@@H]2CCN(c3nnc(NC(=O)CCc4cn(-c5ccc(C(F)(F)F)cc5)nn4)s3)C2)s1` ?
Output line: 0.85

Input line: And the next one, `O=C(Cc1ccccc1)Nc1nnc(N[C@@H]2CCN(c3nnc(NC(=O)CCc4cn(Cc5ccc(OC(F)(F)F)cc5)nn4)s3)C2)s1` ?
Output line: 0.58

Input line: And the next one, `O=C(Cc1ccccc1)Nc1nnc(N[C@H]2CCN(c3nnc(NC(=O)CCc4cn(Cc5ccc(C(F)(F)F)cc5)nn4)s3)C2)s1` ?
Output line: 8.27

Input line: And the next one, `COc1ccc(Cn2cc(CCC(=O)Nc3nnc(N4CC[C@H](Nc5nnc(NC(=O)Cc6ccccc6)s5)C4)s3)nn2)cc1` ?
Output line: 14.2

Input line: And the next one, `O=C(Cc1ccccc1)Nc1nnc(NC2CCN(c3nnc(NC(=O)CCc4cn(Cc5ccc(C(F)(F)F)cc5)nn4)s3)CC2)s1` ?
Output line: 0.13

Input line: And the next one, `COc1ccc(Cn2cc(CCC(=O)Nc3ccc(N4CCC(Nc5nnc(NC(=O)Cc6ccccn6)s5)CC4)nn3)nn2)cc1OC` ?
Output line: 5.75
